Target: MAGL (Mus musculus (Mouse))
Test: Mouse brain proteomes from inhibitor treated mice (oral gavage, sacrificed 4 h after administration, ABPP analysis)
Format: in vivo, mouse (C57Bl/6J)
Conditions: 5 mg/kg oral gavage
Method: Preparation of Mouse Brain Proteomes from Inhibitor Treated Mice. Inhibitors were administered to wild-type C57Bl/6J by oral gavage in a vehicle, e.g. PEG400/Ethanol/PBS (7/2/1). Each animal was sacrificed 4 h following administration and brain proteomes were prepared and analyzed according to previously established methods (See Niphakis, M. J., et al. (2011) ACS Chem. Neurosci. and Long, J. Z., et al. Nat. Chem. Biol. 5:37-44). Data from this assay is shown in Table 2 (% inhibition at 5 mg/kg).
recorded.endpoint: MAGL % Inh 5 mg/kg (mouse)

Examples with answers:
CC1(C(=O)O)CCCN(c2cc(CN3CCCC34CCN(C(=O)OC(C(F)(F)F)C(F)(F)F)CC4)cc(C(F)(F)F)c2)C1 (stereo not shown)    ### (### is ≥75%)
O=C(OC(C(F)(F)F)C(F)(F)F)N1CCC2(CCN(Cc3ccc(C(F)(F)F)cc3N3CCOCC3)C2)CC1    ### (### is ≥75%)
O=C(OC(C(F)(F)F)C(F)(F)F)N1CCC2(CCCN2Cc2cccc(N3CC4CCC(C3)O4)c2Cl)CC1    ### (### is ≥75%)
CS(=O)(=O)NC1CCN(c2cc(C(F)(F)F)ccc2CN2CCCC23CCN(C(=O)OC(C(F)(F)F)C(F)(F)F)CC3)CC1    # (# is <25%)

State recorded MAGL % Inh 5 mg/kg (mouse) for all listed compounds.
1. CCOc1ccc(CN2CCCC23CCN(C(=O)OC(C(F)(F)F)C(F)(F)F)CC3)cc1
2. O=C(OC(C(F)(F)F)C(F)(F)F)N1CCC2(CCCN2Cc2cccc(Cl)c2)CC1

Result ::
### (### is ≥75%)
### (### is ≥75%)

State recorded MAGL % Inh 5 mg/kg (mouse) for all listed compounds.
1. O=C(OC(C(F)(F)F)C(F)(F)F)N1CCC2(CCCN2Cc2cccc(OCCF)c2)CC1
2. O=C(O)[C@@H]1CCCCN1c1cc(CN2CCCC23CCN(C(=O)OC(C(F)(F)F)C(F)(F)F)CC3)cc(C(F)(F)F)c1
3. O=C(OC(C(F)(F)F)C(F)(F)F)N1CCC2(CCCN2Cc2ccc(Cl)cc2N2CCOCC2)CC1
4. CS(=O)(=O)N1CCN(c2cc(C(F)(F)F)ccc2CN2CCCC23CCN(C(=O)OC(C(F)(F)F)C(F)(F)F)CC3)CC1
5. O=C(OC(C(F)(F)F)C(F)(F)F)N1CCC2(CCCN2Cc2ccc(F)c(OCCF)c2)CC1

Result ::
### (### is ≥75%)
### (### is ≥75%)
### (### is ≥75%)
# (# is <25%)
### (### is ≥75%)

Query :: # returns recorded MAGL % Inh 5 mg/kg (mouse) (system: MAGL (Mus musculus (Mouse))) for `CS(=O)(=O)N1CCN(c2cc(Cl)ccc2CN2CCCC23CCN(C(=O)OC(C(F)(F)F)C(F)(F)F)CC3)CC1`
Result :: ### (### is ≥75%)

====

Biological target: ABHD6 (Mus musculus (Mouse), UniProt Q8R2Y0)
Sequence (Q8R2Y0 whole entry): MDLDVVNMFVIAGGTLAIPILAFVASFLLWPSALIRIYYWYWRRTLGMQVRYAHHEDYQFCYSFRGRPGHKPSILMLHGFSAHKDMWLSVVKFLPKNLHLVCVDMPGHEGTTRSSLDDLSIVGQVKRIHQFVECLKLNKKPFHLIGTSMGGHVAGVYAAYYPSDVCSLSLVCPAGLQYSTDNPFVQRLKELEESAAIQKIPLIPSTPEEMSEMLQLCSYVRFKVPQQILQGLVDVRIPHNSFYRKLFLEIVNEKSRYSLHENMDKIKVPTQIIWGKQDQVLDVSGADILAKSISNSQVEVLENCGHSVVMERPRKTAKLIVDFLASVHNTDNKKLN
Assay: In vitro competitive activity-based protein profiling (mouse brain membrane fraction or cell lysates), ABHD6 band
Format: biochemical
Settings: mouse proteome, competitive ABPP
Experimental: In Vitro Competitive Activity-Based Protein Profiling. Proteomes (mouse brain membrane fraction or cell lysates) (50 μL, 1.0 mg/mL total protein concentration) were preincubated with varying concentrations of inhibitors at 37° C. […] Following gel imaging, serine hydrolase activity was determined by measuring fluorescent intensity of gel bands corresponding to MAGL, ABHD6 and FAAH using ImageJ 1.43u software.
pIC50: −log10 of the molar value.
Task for the reader: assign each of the following compounds its reported pIC50.

O=C(OC(C(F)(F)F)C(F)(F)F)N1CCC2(CCCN2Cc2cccc(N3CCC(F)CC3)c2Cl)CC1    < 6.00

State recorded pIC50 for all listed compounds.
1. CS(=O)(=O)N1CCc2cccc(CN3CCC4(CCN(C(=O)OC(C(F)(F)F)C(F)(F)F)CC4)C3)c2C1
2. O=C(OC(C(F)(F)F)C(F)(F)F)N1CCC2(CCCN2Cc2cc(N3CCC(F)CC3)cc(C(F)(F)F)c2)CC1
3. O=C(OC(C(F)(F)F)C(F)(F)F)N1CCC2(CCCN2Cc2ccc(C(F)(F)F)cc2Oc2nc3ccccc3s2)CC1

Result ::
1. > 7.00
2. < 6.00
3. < 6.00

State recorded pIC50 for all listed compounds.
1. O=C(OC(C(F)(F)F)C(F)(F)F)N1CCC2(CCCN2Cc2ccc(Cl)cc2N2CCC2)CC1
2. O=C(OC(C(F)(F)F)C(F)(F)F)N1CCC2(CCCN2Cc2cc(N3CCOCC3)cc(C(F)(F)F)c2)CC1
3. O=C(COc1cc(CN2CCCC23CCN(C(=O)OC(C(F)(F)F)C(F)(F)F)CC3)cc(C(F)(F)F)c1)N1CCCC1

Result ::
1. < 6.00
2. < 6.00
3. < 6.00

State recorded pIC50 for all listed compounds.
1. O=C(OC(C(F)(F)F)C(F)(F)F)N1CCC2(CCCN2Cc2ccc(OCCF)cc2)CC1
2. O=C(OC(C(F)(F)F)C(F)(F)F)N1CCC2(CCN(Cc3cccc4c3CN(C3CC3)CC4)C2)CC1
3. Cc1cc(CN2CCCC23CCN(C(=O)OC(C(F)(F)F)C(F)(F)F)CC3)ccc1C(F)(F)F
4. CC1(C)CC2(CCN(C(=O)OC(C(F)(F)F)C(F)(F)F)CC2)CN1Cc1cc(N2CCOCC2)cc(C(F)(F)F)c1
5. O=C(OC(C(F)(F)F)C(F)(F)F)N1CCC2(CCCN2Cc2cc(N3CCC3)cc(C(F)(F)F)c2)CC1

Result ::
< 6.00
6.00 to 7.00
< 6.00
6.00 to 7.00
< 6.00

State recorded pIC50 for all listed compounds.
1. CC1(C)CC2(CCN(C(=O)OC(C(F)(F)F)C(F)(F)F)CC2)CN1Cc1ccc(C(F)(F)F)cc1N1CCOCC1
2. CS(=O)(=O)N1CCN(c2cc(Cl)cc(CN3CCCC34CCN(C(=O)OC(C(F)(F)F)C(F)(F)F)CC4)c2)CC1
3. O=C(OC(C(F)(F)F)C(F)(F)F)N1CCC2(CCCN2Cc2ccc(OCCN3CCCCC3)c(Cl)c2)CC1

Result ::
1: < 6.00; 2: < 6.00; 3: < 6.00

====

target: MAGL (Mus musculus (Mouse), UniProt O35678); experiment: In vitro competitive activity-based protein profiling (mouse brain membrane fraction or cell lysates), MAGL band; type: biochemical; conditions: mouse proteome, competitive ABPP
Sequence (O35678 whole entry): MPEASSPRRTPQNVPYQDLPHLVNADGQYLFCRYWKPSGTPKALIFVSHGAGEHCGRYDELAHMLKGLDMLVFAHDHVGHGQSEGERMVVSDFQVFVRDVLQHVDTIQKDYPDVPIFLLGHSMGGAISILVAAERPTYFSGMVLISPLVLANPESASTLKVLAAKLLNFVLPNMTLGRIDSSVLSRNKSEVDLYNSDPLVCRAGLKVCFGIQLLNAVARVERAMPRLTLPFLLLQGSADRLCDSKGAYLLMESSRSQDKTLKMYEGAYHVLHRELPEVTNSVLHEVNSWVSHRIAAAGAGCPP
pIC50: −log10 of the molar value.
Task for the reader: assign each of the following compounds its reported pIC50.

COc1cccc(CN2CCCC23CCN(C(=O)OC(C(F)(F)F)C(F)(F)F)CC3)c1 [Example 2]    6.00 to 7.00

State recorded pIC50 for all listed compounds.
1. O=C(OC(C(F)(F)F)C(F)(F)F)N1CCC2(CCCN2Cc2ccc(C(F)(F)F)c(N3CCOCC3)c2)CC1 [Example 133]
2. CS(=O)(=O)N1CCN(c2cc(CN3CCCC34CCN(C(=O)OC(C(F)(F)F)C(F)(F)F)CC4)cc(C(F)(F)F)c2)CC1 [Example 43]
3. O=C(OC(C(F)(F)F)C(F)(F)F)N1CCC2(CCCN2Cc2ccc(Cl)cc2N2CCS(=O)(=O)CC2)CC1 [Example 103]

Result ::
1. > 7.00
2. > 7.00
3. 6.00 to 7.00

====

Task for the reader: assign each of the following molecules its reported inhibition at 1 µM.
molecular target: ABHD6 (Mus musculus (Mouse)); experiment: In vitro competitive activity-based protein profiling (mouse brain membrane fraction or cell lysates), ABHD6 band; format: biochemical; conditions: 1 μM, mouse proteome; read-out: ABHD6 % Inh 1 μM (mouse)

Examples with answers:
O=C(OC(C(F)(F)F)C(F)(F)F)N1CCC2(CCCN2Cc2ccc(OCCF)cc2)CC1    < 25%
CC(C)N1CCc2cccc(CN3CCC4(CCN(C(=O)OC(C(F)(F)F)C(F)(F)F)CC4)C3)c2C1    ≥ 75%

State recorded inhibition at 1 µM for all listed molecules.
1. CCN1CCc2cccc(CN3CCC4(CCN(C(=O)OC(C(F)(F)F)C(F)(F)F)CC4)C3)c2C1
2. O=C(OC(C(F)(F)F)C(F)(F)F)N1CCC2(CCN(Cc3ccc(N4CCCC4)c(Cl)c3)C2)CC1

Result ::
1: ≥ 75%; 2: ≥ 75%

====

target: MAGL (Mus musculus (Mouse), UniProt O35678); assay: Mouse brain proteomes from inhibitor treated mice (oral gavage, sacrificed 4 h after administration, ABPP analysis); type: in vivo, mouse (C57Bl/6J); settings: 5 mg/kg oral gavage
recorded.endpoint: MAGL % Inh 5 mg/kg (mouse)

Examples with answers:
O=C(OC(C(F)(F)F)C(F)(F)F)N1CCC2(CCN(Cc3ccc(Cl)cc3N3CCCCC3)C2)CC1 [Example 24]    ### (### is ≥75%)
O=C(OC(C(F)(F)F)C(F)(F)F)N1CCC2(CCCN2Cc2cc(N3CCC3)cc(C(F)(F)F)c2)CC1 [Example 47]    ### (### is ≥75%)
CCN1CCCc2cccc(CN3CCC4(CCN(C(=O)OC(C(F)(F)F)C(F)(F)F)CC4)C3)c21 [Example 71]    ### (### is ≥75%)
O=C(OC(C(F)(F)F)C(F)(F)F)N1CCC2(CCCN2Cc2cc(N3CCS(=O)(=O)CC3)cc(C(F)(F)F)c2)CC1 [Example 42]    ### (### is ≥75%)
COc1cc(Cl)ccc1CN1CCCC12CCN(C(=O)OC(C(F)(F)F)C(F)(F)F)CC2 [Example 9]    ### (### is ≥75%)
CCc1cc(CN2CCCC23CCN(C(=O)OC(C(F)(F)F)C(F)(F)F)CC3)ccc1F [Example 150]    ### (### is ≥75%)

State recorded MAGL % Inh 5 mg/kg (mouse) for all listed compounds.
1. O=C(OC(C(F)(F)F)C(F)(F)F)N1CCC2(CCCN2Cc2ccc(N3CCOCC3)c(C(F)(F)F)c2)CC1 [Example 129]
2. Cc1c(CN2CCCC23CCN(C(=O)OC(C(F)(F)F)C(F)(F)F)CC3)cccc1N1CCCC1 [Example 85]
3. O=C(OC(C(F)(F)F)C(F)(F)F)N1CCC2(CCCN2Cc2ccc(C(F)(F)F)cc2N2CCOCC2)CC1 [Example 67]
4. O=C(O)C1CCN(c2cc(F)cc(CN3CCCC34CCN(C(=O)OC(C(F)(F)F)C(F)(F)F)CC4)c2)CC1 [Example 236]
5. CCOc1cccc(CN2CCCC23CCN(C(=O)OC(C(F)(F)F)C(F)(F)F)CC3)c1 [Example 5]
6. CCc1cc(CN2CCC3(CCN(C(=O)OC(C(F)(F)F)C(F)(F)F)CC3)C2)ccc1F [Example 152]
7. O=C(O)C1CCN(Cc2cc(Cl)cc(CN3CCCC34CCN(C(=O)OC(C(F)(F)F)C(F)(F)F)CC4)c2)C1 (stereo not drawn) [Example 272]

Result ::
### (### is ≥75%)
### (### is ≥75%)
### (### is ≥75%)
### (### is ≥75%)
### (### is ≥75%)
### (### is ≥75%)
### (### is ≥75%)
